Kindly state pEC50 for each of the entries shown.
Target: hGIPR (Homo sapiens)
Assay: Functional cAMP activity in the presence of 1% HSA
Type: cell-based
Conditions: read-out: cAMP Rel EC50, hGIPR
Starred links: 1 amine or outer side, 2 acyl side, 3 side chain; linkers in the order of their positions; H or OH if unused. Non-standard residues stand in square brackets, D forms with d. Groups on a side chain read outwards from the residue. *: point of attachment. C18 diacid = O=C(O)CCCCCCCCCCCCCCCCC(=O)*; αMePhe(2-F) = C[C@](N)(Cc1ccccc1F)C(=O)O; γGlu = O=C(O)[C@H](CCC(=O)[*:2])N[*:1]; αMe4Pal = C[C@](N)(Cc1ccncc1)C(=O)O; αMeY = C[C@](N)(Cc1ccc(O)cc1)C(=O)O; 4Pal = N[C@@H](Cc1ccncc1)C(=O)O; αMeL = CC(C)C[C@](C)(N)C(=O)O; αMeS = C[C@](N)(CO)C(=O)O; Orn = NCCC[C@H](N)C(=O)O; AEEA = NCCOCCOCC(=O)O; Aib = CC(C)(N)C(=O)O
Numbers only, as −log10 of the molar value.

substance	assay-system	quantitative-result
H-Y[Aib]QGTFTSD[4Pal]SQ[αMeL]LD[Orn]K([AEEA-γGlu-C18 diacid])AQ[αMe4Pal]AFIE[αMeY]LIA[Aib]GPSSGEPPPSGSEE-NH2 [Example 1099]	hGIPR (Homo sapiens)	8.06
H-Y[Aib]QGT[αMePhe(2-F)]TSD[4Pal][αMeS]I[αMeL]LD[Orn]K([γGlu-γGlu-C18 diacid])AQ[Aib][Orn]FI[dE]YLLEGGPSSGEPPPSGTE-NH2 [Example 532]	hGIPR (Homo sapiens)	8.83
H-Y[Aib]QGTFTSDFS[Orn][αMeL]LDKK([AEEA-γGlu-C18 diacid])AQ[Aib]AFIEYLLAGGPSSGAPPPSGD-NH2 [Example 85]	hGIPR (Homo sapiens)	7.66
H-Y[Aib]QGTFTSD[4Pal]SQ[αMeL]LD[Orn]K([AEEA-γGlu-C18 diacid])AQ[αMe4Pal]AFIE[αMeY]LIEGGPSSGAPPPSGS-NH2 [Example 849]	hGIPR (Homo sapiens)	7.44

From here, focus on the item given below.
Data request: Output measured pEC50 for this item: H-Y[Aib]QGT[αMePhe(2-F)]TSD[4Pal][αMeS]I[αMeL]LD[Orn]K([γGlu-γGlu-C18 diacid])AQ[Aib][Orn]FI[dE][αMeY]LSEGGPSSGEPPPSGTGE-NH2 [Example 518]
Data returned: 8.15

====

Give pEC50 for every item shown.
Molecular target: hGIPR (Homo sapiens, UniProt P48546)
Sequence (P48546 22-466): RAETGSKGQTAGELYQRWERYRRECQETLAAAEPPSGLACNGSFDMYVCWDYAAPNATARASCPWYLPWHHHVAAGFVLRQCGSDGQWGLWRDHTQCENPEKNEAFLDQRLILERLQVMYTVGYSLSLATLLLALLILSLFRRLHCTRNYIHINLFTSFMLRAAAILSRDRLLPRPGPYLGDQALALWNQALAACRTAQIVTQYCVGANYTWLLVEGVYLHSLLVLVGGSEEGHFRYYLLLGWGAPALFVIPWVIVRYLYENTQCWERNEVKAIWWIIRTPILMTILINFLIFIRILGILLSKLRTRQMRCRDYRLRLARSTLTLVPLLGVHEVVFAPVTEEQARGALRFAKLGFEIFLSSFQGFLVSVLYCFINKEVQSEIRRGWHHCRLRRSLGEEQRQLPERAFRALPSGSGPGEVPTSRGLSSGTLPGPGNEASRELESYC
Assay: Functional cAMP activation in the presence of 0.1% casein (no HSA);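 also: intracellular cAMP rise after 30 min at 37 °C read by HTRF against a standard curve, scaled between buffer alone (0%) and top control ligand concentration (100%), four-parameter fit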
Type: cell-based
Details: in the presence of 0.1% casein (no HSA); geometric mean; read-out: Relative cAMP EC50, hGIPR
Starred links: 1 amine or outer side, 2 acyl side, 3 side chain; linkers in the order of their positions; H or OH if unused. Non-standard residues stand in square brackets, D forms with d. Groups on a side chain read outwards from the residue. No end group written: not given here. *: point of attachment. C20 diacid = O=C(O)CCCCCCCCCCCCCCCCCCC(=O)*; C18 diacid = O=C(O)CCCCCCCCCCCCCCCCC(=O)*; Phe(4-CN) = N#Cc1ccc(C[C@H](N)C(=O)O)cc1; αMePhe(2-F) = C[C@](N)(Cc1ccccc1F)C(=O)O; γGlu = O=C(O)[C@H](CCC(=O)[*:2])N[*:1]; αMe4Pal = C[C@](N)(Cc1ccncc1)C(=O)O; αMeY = C[C@](N)(Cc1ccc(O)cc1)C(=O)O; αMeF = C[C@](N)(Cc1ccccc1)C(=O)O; 4Pal = N[C@@H](Cc1ccncc1)C(=O)O; αMeL = CC(C)C[C@](C)(N)C(=O)O; αMeS = C[C@](N)(CO)C(=O)O; Orn = NCCC[C@H](N)C(=O)O; AEEA = NCCOCCOCC(=O)O; Aib = CC(C)(N)C(=O)O
One number for each entry, as −log10 of the molar value.

substance	assay-system	pEC50
H-Y[Aib]QGTFTSD[4Pal]S[Orn][αMeL]LDKK([AEEA-γGlu-C18 diacid])AQ[Aib]AFIEYLLE[dA]GPSS[Aib]APPPSGT-NH2 [Example 275]	hGIPR (Homo sapiens, UniProt P48546)	9.50

// for each substance in input: emit pEC50
1. H-Y[Aib]QGTFTSD[4Pal]SQ[αMeL]LD[Orn]K([dE-γGlu-C18 diacid])AQ[αMe4Pal]QFIQ[αMeY]LIE[Aib]GPSSGEPPPSGGGE-NH2 [Example 1129]
2. H-Y[Aib]QGTFTSD[4Pal]S[Orn][αMeL]LDKK([γGlu-γGlu-C18 diacid])AQ[αMe4Pal]AFIE[αMeY]LIAGGPSSGAPPPEGS-NH2 [Example 1015]

Data returned:
[10.32, 10.09]

Hi! Can you tell me pEC50 for each of these substances?
1. H-Y[Aib]QGTFTSDFS[Orn][αMeL]LDKK([AEEA-γGlu-C18 diacid])AQ[Aib]AFIEWLLEGGPSSGAPPPEGE-NH2 [Example 120]
2. H-Y[Aib]QGTFTSDFS[Orn][αMeL]LDKK([AEEA-γGlu-C20 diacid])AQ[Aib]AFIEYLLAGGPSSGAPPPSEG-NH2 [Example 60]
3. H-Y[Aib]QGTFTSDFS[Orn][αMeL]LDKK([AEEA-γGlu-γGlu-C18 diacid])AQ[Aib]AFIEYLLE[Aib]GPSSGAPPPSGS-NH2 [Example 192]
4. H-Y[Aib]QGTFTSD[4Pal]SQ[αMeL]LDKK([γGlu-AEEA-γGlu-C18 diacid])AQ[αMe4Pal]AFIEYLIE[Aib]GPSSGAPPPSGS-NH2 [Example 861]
5. Y[Aib]QGTFTSD[4Pal]S[Orn][αMeL]LD[Orn]K([AEEA-γGlu-C18 diacid])AQ[Aib]AFIE[αMeY]LLEGGPSSGAPPPSGS-NH2 [Example 933]
6. H-Y[Aib]QGTFTSDFSK[αMeL]LDKK([AEEA-γGlu-C20 diacid])AQ[Aib]AFIEYLLAGGPSSGEPPPSEE-NH2 [Example 4]
7. H-Y[Aib]QGT[αMePhe(2-F)]TSD[Phe(4-CN)]SILLDKQAQK([AEEA-AEEA-γGlu-C20 diacid])AFIEYLLEGGPSSGEPPPSAG-NH2 [Example 350]
8. Y[Aib]QGTFTSD[4Pal]SQ[αMeL]LD[Orn]K([dE-γGlu-C18 diacid])AQ[αMe4Pal]AFIQ[αMeY]LLEGGPSSGAPPPSGSEEE-NH2 [Example 1083]

Data returned:
1. 9.36
2. 9.87
3. 9.85
4. 9.71
5. 9.59
6. 9.72
7. 9.97
8. 9.48

Please state, for each entry, its recorded pEC50.
1. H-Y[Aib]QGTFTSD[4Pal]S[Orn][αMeL]LDKK([γGlu-γGlu-C18 diacid])AQ[αMe4Pal]AFIE[αMe4Pal]LIE[Aib]GPSSGEPPPSGSE-NH2 [Example 990]
2. H-Y[Aib]QGTFTSDFS[Orn][αMeL]LDKK([AEEA-γGlu-C20 diacid])AQ[Aib]AFIEYLLAGGTSSGEPPPSGE-NH2 [Example 106]
3. H-Y[Aib]QGT[αMePhe(2-F)]TSD[4Pal][αMeS]I[αMeL]LD[Orn]K([AEEA-γGlu-C18 diacid])AQ[αMe4Pal]EFI[dE][αMeY]LIEGGPSSGAPPPTGE-NH2 [Example 1142]
4. H-Y[Aib]QGTFTSD[4Pal]SQ[αMeL]LD[Orn]K([AEEA-γGlu-C18 diacid])AQ[αMe4Pal]QFIE[αMeY]LIA[Aib]GPSSGEPPPSGSEE-NH2 [Example 1100]
5. H-Y[Aib]QGTFTSD[4Pal]SR[αMeL]LDKK([AEEA-γGlu-C18 diacid])AQ[αMe4Pal]AFIEYLIE[Aib]GESSGAPPPSGS-NH2 [Example 224]
6. H-Y[Aib]QGTFTSD[4Pal]SQ[αMeL]LDKK([AEEA-γGlu-γGlu-C18 diacid])AQ[αMe4Pal]AFIEYLIE[Aib]GPSSGAPPPSGS-NH2 [Example 860]

Data returned:
9.94
9.46
11.15
10.16
9.94
9.69

Each substance below has a reported value. Please supply its pEC50.
1. H-Y[Aib]QGTFTSDFS[Orn][αMeL]LDKK([AEEA-γGlu-C18 diacid])AQ[Aib]AFIEYLLE[Aib]G[4Pal]SSGAPPPSGS-NH2 [Example 242]
2. H-Y[Aib]QGTFTSDFS[Orn][αMeL]LDKK([γGlu-γGlu-C18 diacid])AQ[Aib]AFIEYLLEGGPSSGAPPPGGS-NH2 [Example 198]
3. Y[Aib]QGT[αMeF]TSD[4Pal][αMeS]I[αMeL]LD[Orn]K([AEEA-γGlu-C18 diacid])AQ[αMe4Pal]EFI[dE][αMeY]LIEGGPSSGAPPPSGGGE-NH2 [Example 1168]
4. H-Y[Aib]QGTFTSD[4Pal]SR[αMeL]LDKK([AEEA-γGlu-C18 diacid])AQ[αMe4Pal]AFIE[αMe4Pal]LIEGGPSSGAPPPSGSEE-NH2 [Example 956]
5. H-Y[Aib]QGTFTSDFSK[αMeL]LDKK([AEEA-γGlu-C20 diacid])AQ[Aib]AFIEYLLEGGPSSGEPPPGEG[AEEA]-NH2 [Example 54]

Data returned:
10.04
9.74
11.08
9.59
9.30
